logP of 0.8 or higher: true (1). Under 0.8: false (0).

compound="CC1(CO)COC(Cn2cncn2)(c2ccc(Cl)cc2Cl)OC1 (configuration not stated)" class="true (1)"
compound=Cc1ncc([N+](=O)[O-])n1CCOC(=O)N(C)C class="false (0)"
compound=O=C(NN=Cc1ccco1)Nc1ccccc1 class="true (1)"
compound=CNCCN(C)S(=O)(=O)c1ccc(CONC(N)=O)c([N+](=O)[O-])c1 class="false (0)"
compound=O=[N+]([O-])C=C1NCCN1Cc1cccnc1 class="false (0)"
compound=CCSc1nc(NC(C)C)nc(NC(C)C)n1 class="true (1)"

====

Given measured logP, output yes if it is greater than or equal to 2 and no if not.

compound="COc1ccc2cc(C(C)C(=O)OCC(N)=O)ccc2c1 (configuration not stated)" class=yes
compound="C#CC1(OC(=O)C2=CN(C)C=CC2)CCC2C3CCC4=CC(=O)CCC4(C)C3CCC21C (configuration not stated)" class=yes
compound="Cc1nnc(SCC2=C(C(=O)OCOC(=O)C(C)(C)C)N3C(=O)C(NC(=O)Cn4cnnn4)C3SC2)s1 (configuration not stated)" class=no
compound=Clc1ccc(-c2ccc(Cl)c(Cl)c2)c(Cl)c1 class=yes
compound="CC(CO)OC(C)CO (configuration not stated)" class=no
compound=CCOC(=O)COC(=O)c1cc(Oc2ccc(C(F)(F)F)cc2Cl)ccc1[N+](=O)[O-] class=yes
compound="COC(=O)CCCCC(S)CCS (configuration not stated)" class=yes
compound=O=S1(=O)NC(C2CCCCC2)=Nc2ccccc21 class=yes
compound="CCCC(C)C(=O)OCC1CCC(n2cnc3c(=O)[nH]cnc32)O1 (configuration not stated)" class=no
compound=c1ccc(SCc2ccc(CCCN3CCOCC3)cc2)cc1 class=yes
compound="Nc1c2ncn(C3OC(CO)CC3F)c2nc[n+]1[O-] (configuration not stated)" class=no
compound="NC(=O)CC(CC(=O)O)c1ccc(Br)cc1 (configuration not stated)" class=no

====

Class y: logP at least 1. Class n: logP below 1.

compound=CN1C(=O)CN=C(c2ccccc2Cl)c2cc([N+](=O)[O-])ccc21 class=y
compound="CC(=O)Nc1ncnc2c1ncn2C1CC(O)C(CO)O1 (stereo unspecified)" class=n
compound="CCN(CC)S(=O)(=O)N(CC)C1C=C2c3cccc4[nH]cc(c34)CC2N(C)C1 (stereo unspecified)" class=y
compound=Cc1[nH]cnc1CSCCNC1=NC(=O)CN1 class=n
compound=CCCCCCOC(=O)Oc1cccc(C2(C(=O)CC)CCN(C)CC2)c1 class=y

====

Note to self: use condition met only for logP readings below 1; a reading exactly at 1 still gets condition not met.

molecule=CC(=NNC(=S)NNC(=S)Nc1ccccc1Cl)c1ccccn1 class="condition not met"
molecule="C[C@H]1OC(O[C@H]2[C@@H](O)CC(O[C@H]3[C@@H](O)CC(O[C@H]4CC[C@@]5(C)[C@H](CC[C@@H]6[C@@H]5CC[C@]5(C)[C@@H](C7=CC(=O)OC7)[C@@H](OC=O)C[C@]65O)C4)O[C@@H]3C)O[C@@H]2C)C[C@H](O)[C@@H]1O (stereo not given in full)" class="condition not met"
molecule="CCC(C)N1C(=O)C(=O)c2ccccc2C1=O (stereo not given)" class="condition not met"
molecule="O=C(O)C(Cc1ccc(F)cc1)n1cccc1 (stereo not given)" class="condition not met"
molecule=N#CN=C1NCCN1Cc1cccnc1 class="condition met"
molecule=Nc1nc(Sc2ccc(Cl)cc2)nc(C(Cl)(Cl)Cl)n1 class="condition not met"
molecule="COCC(O)Cn1c(C)cnc1[N+](=O)[O-] (stereo not given)" class="condition met"
molecule=Cc1ccc(C(=O)COc2c(C(=O)c3ccc(Cl)c(C)c3Cl)c(C)nn2C)cc1 class="condition not met"
molecule=C=CCOC1=NS(=O)(=O)c2ccccc21 class="condition not met"

====

Where a SMILES comes first, the peptide text is derived from it.
Values of logP greater than or equal to 1 map to Criterion met; values below map to Criterion not met.

compound=c1ccc(-c2nnn[nH]2)cc1 class="Criterion met"
compound=N#CC(C#N)=NNc1ccccc1Br class="Criterion met"
compound=Cc1nc([N+](=O)[O-])c(C)[nH]1 class="Criterion not met"
compound=COC(=O)c1ccc2[nH]ccc2c1 class="Criterion met"
compound=CCC1(CC)OCC(c2ccc(NC(=O)N(C)C)cc2C)CO1 class="Criterion met"
compound="CC(=O)NC(CC(C)C)C(=O)NC(CCC(=O)O)C(=O)NC(Cc1ccccc1)C(N)=O (stereo not drawn) (Ac-Leu-Glu-Phe-NH2; configuration not given here)" class="Criterion not met"
compound=O=c1cc[nH]cc1 class="Criterion not met"
compound=O=C(O)Cc1nn(Cc2nc3cc(Br)ccc3s2)c(=O)c2ccccc12 class="Criterion met"
compound=N#CCc1ccc(O)c2ncccc12 class="Criterion met"
compound="CC(O)COc1ccc(Cl)cc1 (centres undefined)" class="Criterion met"
compound=Cn1c([N+](=O)[O-])cnc1-c1ccc(N)cc1 class="Criterion met"
compound="CNC(Cc1ccccc1)C(=O)O (centres undefined)" class="Criterion not met"
compound=Cc1cc(=O)[nH]c(=O)[nH]1 class="Criterion not met"
compound=CC1(C)COC(Cn2cncn2)(c2ccc(-n3ccnc3)cc2Cl)OC1 class="Criterion met"
compound=S=C=NCCCCc1cccnc1 class="Criterion met"
compound=COCCNC(=S)Cn1cnc([N+](=O)[O-])n1 class="Criterion not met"
compound=Cc1c(O)c(=O)ccn1-c1ccccc1 class="Criterion met"
compound=CCCOc1ccc2ccc(=O)oc2c1 class="Criterion met"
compound="O=C1OC(O)C(C(Cl)Cl)=C1Cl (centres undefined)" class="Criterion met"
compound=CCCCOc1ccccc1NC(=O)OCCN1CCOCC1 class="Criterion met"
compound=NC(=O)c1ccc2ccccc2c1 class="Criterion met"
compound=CSCCCNC(=O)C(F)(F)Cn1cnc([N+](=O)[O-])n1 class="Criterion not met"
compound=N#CCc1ccc(C(=O)O)cc1 class="Criterion met"
compound="C#CCC(O)(c1cccnc1)c1ccc(Cl)cc1Cl (centres undefined)" class="Criterion met"
compound=COC(=O)Cc1ccc(O)c2ncccc12 class="Criterion met"
compound=C#CCCOCn1ccnc1C=NO class="Criterion not met"
compound="COC1=CC2CCC(NC(C)=O)c3cc(=O)c(OC)ccc3C2C(OC)=C1O (centres undefined)" class="Criterion not met"
compound=COCCn1cnc2c(=O)[nH]c(Nc3ccccc3)nc21 class="Criterion met"
compound=c1ccc(Cn2cnnn2)cc1 class="Criterion met"

====

Where a SMILES comes first, the peptide text is derived from it.
experimental endpoint: logP

compound="CC(=O)N[C@@H](CO)C(=O)N[C@H](C(N)=O)C(C)C (Ac-Ser-Val-NH2)" assay_value=-1.53
compound=COc1cc(O)cc(OC)c1O assay_value=0.17
compound=O=C(Cn1ccnc1[N+](=O)[O-])NCCCO assay_value=-1.27
compound=Cc1nc([N+](=O)[O-])c(Br)n1C assay_value=0.44
compound="CCOCCN(CCOCC)CC(O)c1cc(-c2ccc(Cl)c(Cl)c2)nc2ccccc12 (stereo unspecified)" assay_value=5.76
compound="NC(COCc1cccnc1)C(=O)O (stereo unspecified)" assay_value=-2.44
compound="Nc1nc(Cl)nc2c1ncn2C1OC(CO)C(O)C1O (stereo unspecified)" assay_value=-0.37
compound=Nc1ccc2c(c1)C(=O)N(O)C2=O assay_value=0.16
compound="CC(=O)OC1(c2ccccc2)CCN(C)C(C)C1C (stereo unspecified)" assay_value=2.52
compound="CCN(C=Nc1ccn(C2CC(O)C(CO)O2)c(=O)n1)CC (stereo unspecified)" assay_value=-0.59
compound=Cc1cccc(C(=O)NN(C(=O)c2ccccc2Cl)C(C)(C)C)c1 assay_value=3.11
compound="CC1CC2C3CCC4=CC(=O)C=CC4(C)C3(F)C(O)CC2(C)C1(O)C(=O)NCCc1ccccc1 (stereo unspecified)" assay_value=3.66
compound="COC(=O)c1ccc(OCC(OC(=O)n2ccnc2)C(C)(C)C)cc1 (stereo unspecified)" assay_value=3.59
compound="CC(O)COc1ccccc1 (stereo unspecified)" assay_value=1.61
compound="N=c1ccn2c(n1)OC1C(O)C(CCl)OC12 (stereo unspecified)" assay_value=-3.1
compound=O=[N+]([O-])C=C1SCCN1Cc1ccc(Cl)nc1 assay_value=0.65
compound=O=C(CCn1ccnc1[N+](=O)[O-])NCCO assay_value=-1.08
compound=CC(C)(C)C(=O)C(C#N)=NNc1ccc(Cl)cc1C(F)(F)F assay_value=5.67
compound=Cc1cccc(C)c1NN=C(C#N)C#N assay_value=2.8
compound=CN(CCCn1ccnc1C=NO)S(=O)(=O)C(F)(F)F assay_value=1.77
compound=C#CCOc1c(Cl)cc(NC=NOCOC)cc1Cl assay_value=3.2
compound=CCN1C(=O)C(=O)c2c(OC)cc(OC)cc2C1=O assay_value=1.23
compound="Cc1cn(C2CC(N=[N+]=[N-])C(COC(=O)CCCNC(=O)C34CC5CC(CC(C5)C3)C4)O2)c(=O)[nH]c1=O (stereo unspecified)" assay_value=2.47
compound=Cc1nonc1Cc1ccc([N+](=O)[O-])cc1 assay_value=2.21
compound=Clc1cccc(-c2c(Cl)c(Cl)cc(Cl)c2Cl)c1Cl assay_value=7.25
compound="CC(C)(C)NCC(O)COCCCc1ccccc1 (stereo unspecified)" assay_value=2.58
